Kindly supply the reported pKd values for the records listed here.
Biological target: T1, human calmodulin (human, UniProt P0DP23 1-149)
T1 construct: Calmodulin, human; in pET-17b; Purification adapted from McCluskey et al. 2007; also called CaM; His-Calmodulin; source: Rosetta E. coli, purified (Ni-NTA, Phenyl-sepharose)
Experiment: fluorescence polarisation; anisotropy; fluorescently labelled D2 peptide at 0.025 µM final, Par-4 or CaM added from 10x stocks of 0-20 µM; 200 mM NaCl, 200 µM CaCl2, 50 mM Tris pH 7.5; room temperature, ten minutes; average of four trials
Conditions: both partners purified
Square brackets hold non-standard residues; d marks the D form. Ends that are not written are not given here. * marks the point of attachment. K(5-FAM) = lysine labeled with 5-carboxyfluorescein (5-FAM), C-terminal, O=C(NCCCC[C@H](N*)C(=O)O)c1ccc2c(c1)C(=O)OC21c2ccc(O)cc2Oc2cc(O)ccc21; Arg(Me2s) = CN=C(NC)NCCC[C@H](N)C(=O)O
Give bare numbers, as −log10 of the molar value.

{"Binder": "VYIKIYIVL[Arg(Me2s)]R[Arg(Me2s)]RKRVNTKRSSRAFRAHLRAPLKGN-{K(5-FAM)} (D2 dopamine receptor, human, amino acids 208-243 of the third intracellular loop; Same peptide as m1 but with symmetric dimethylarginine at 217 and 219; The C-terminal fluorophore is carried on an added lysine (K-5-FAM); source: synthetic peptide (21st Century Biochemicals); not shown: FLAG, N-terminal, kept)", "pKd": 6.87}

Could you tell me which pKd is on file for VYIKIYIVLRRRRKRVNTKRSSRAFRAHLRAPLKGN-{K(5-FAM)} (D2 dopamine receptor, human, amino acids 208-243 of the third intracellular loop; The C-terminal fluorophore is carried on an added lysine (K-5-FAM) after residue 243; source: synthetic peptide (21st Century Biochemicals); not shown: FLAG, N-terminal, kept) ?
7.24

Recorded values, source paper PMC7876548.
